TEST_DESCRIPTION: binders of r(CAG) RNA repeats, primary screen, biochemical, fluorescence (AID 651821);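 note: higher means more dye released from RNA so lower well fluorescence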
MEASUREMENT_SETUP: r(CAG) RNA repeat, TO-PRO-1 dye displacement fluorescence; at 3 µM
Among all 370,000 compounds or so, about 4,700 (1.3%) were called active.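 Rule for the calls: active = inhibition above the plate cutoff, the mean of all test compounds on that plate plus 3 SD (cut at about 35% in these data); inactive = the rest.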 Only a selection was taken, and actives are over-represented in it overall.
# output must be one of YES for active, NO for inactive

Given NS(=O)(=O)c1ccc(NC(=S)NNC(=O)c2cccs2)cc1 , state the outcome it received in this test.
NO

Given CSc1nsc(NC(=O)Nc2ccccc2)n1 , state the outcome it received in this test.
YES

Given O=C(O)c1ccccc1-c1ccccc1C(=O)Nc1ccccc1Br , state the outcome it received in this test.
NO

Given CCc1nnc(NS(=O)(=O)c2ccc(NC(=S)NC(=O)/C=C/c3cccs3)cc2)s1 , state the outcome it received in this test.
YES

Given O=C(NC(=S)Nc1ncccn1)c1ccccc1Br , state the outcome it received in this test.
NO

Given COC(=O)C1=C(C)N(Cc2ccccc2C(F)(F)F)C(=NCc2ccc(C(F)(F)F)cc2)NC1c1ccc(F)cc1 (stereo unspecified) , state the outcome it received in this test.
NO

Given COC(=O)c1cnn2c(C(F)(F)F)cc(-c3ccco3)nc12 , state the outcome it received in this test.
NO

Given C=CC[C@]12C[C@@]3(O[C@H](c4ccc(C(F)(F)F)cc4)N=C3C[C@H](c3ccc(OC)cc3)[C@H]1C)N(C1CCN(Cc3ccccc3)CC1)C2=O , state the outcome it received in this test.
NO

Given COCc1cc(N2CCN(C(=O)OC(C)(C)C)C[C@@H]2C)ccc1N1CCN(Cc2ccccc2)[C@H](C)C1 , state the outcome it received in this test.
NO

Given C#CCNC(=O)C[C@H]1C[C@@]2(C(=O)OC)C(=C[C@H](C(C)C)O[C@@H]2C2CC2)N(Cc2ccco2)C1=O , state the outcome it received in this test.
NO

Given COC(=O)c1scc(C)c1NC(=O)CSc1ccc(Cl)cc1 , state the outcome it received in this test.
NO

Given CC(=O)N1CCCN(C2=Nc3ccccc3Sc3ccccc32)CC1 , state the outcome it received in this test.
NO

Given CSc1nc(-c2ccccc2)nc(C(Cl)Cl)n1 , state the outcome it received in this test.
NO

Given Cc1cc(C)c2nc(-c3ccco3)cc(C(=O)O)c2c1 , state the outcome it received in this test.
YES

Given Cn1cc(S(=O)(=O)Nc2ccc(Cl)cc2Cl)c(=O)n(C)c1=O , state the outcome it received in this test.
NO

Given COc1cc(=O)[nH]c(=O)n1C(=O)Cc1ccccc1 , state the outcome it received in this test.
NO
